Tested on: IL-2 stimulated pSTAT5 in Tall-1 T cells (JAK3)
assay_details: Cellular JAK3 potency assay: inhibition of IL-2 stimulated pSTAT5 in Tall-1 T cells
Assay type: cell-based
applied_conditions: IL-2 300 ng/ml, pSTAT5 AlphaLisa, Tall-1 human T cell line; read-out: Tall-1 (pIC50) (converted)
endpoint_name: IC50

Record `C=CC(=O)N1CC(COc2nc(-c3ccc(O)cc3)cn3cncc23)C1` , field IC50: 31.6 to 200 nM

Record C=CC(=O)N1CC2(CCC2Oc2cc(-c3ccc(O)cc3)cn3cncc23)C1 (centres unmarked) , field IC50: 31.6 to 200 nM

Record `CN(C)C/C=C/C(=O)N1CC(COc2cc(-c3ccc(O)c(F)c3)cn3cncc23)C1` , field IC50: 200 to 1000 nM

Record `C=CC(=O)N1[C@@H]2CC[C@H]1C[C@H](Oc1cc(-c3ccc(O)cc3)cn3cncc13)C2` , field IC50: 31.6 to 200 nM

Record `C=CC(=O)N1CC(COc2cc(-c3ccc(O)c(C)c3)cn3cncc23)C1` , field IC50: 31.6 to 200 nM

Record `C=CC(=O)N1CC2(CC(Oc3cc(-c4ccc(O)cc4)cn4cncc34)C2)C1` , field IC50: 200 to 1000 nM

Record C=CC(=O)N1CCC(Oc2cc(-c3ccc(O)cc3)cn3cncc23)C(F)(F)C1 (centres unmarked) , field IC50: ≤ 31.6 nM

Record `C=CC(=O)N1CC(COc2cc(-c3ccc(O)cc3OC)cn3cncc23)C1` , field IC50: 200 to 1000 nM

Record `C=CC(=O)N1CC(COc2cc(-c3cc(F)c(O)c(Cl)c3)cn3cncc23)C1` , field IC50: 31.6 to 200 nM

Record `C=CC(=O)N1CC(COc2cc(-c3c(F)cc(O)cc3F)cn3cncc23)C1` , field IC50: 31.6 to 200 nM

Record `C=CC(=O)N1[C@@H]2CC[C@H]1C[C@@H](Oc1cc(-c3ccc(O)cc3)cn3cncc13)C2` , field IC50: 31.6 to 200 nM

Record `C=CC(=O)N1CCC(Oc2cc(-c3cc(F)c(O)cc3CC)cn3cncc23)CC1` , field IC50: ≤ 31.6 nM

Record C=CC(=O)N1CCC(Oc2cc(-c3cc(F)c(O)cc3CC)cn3cncc23)C(F)(F)C1 (centres unmarked) , field IC50: ≤ 31.6 nM

Record `C=CC(=O)N1CC(COc2cc(-c3cc(Cl)c(O)c(Cl)c3)cn3cncc23)C1` , field IC50: 31.6 to 200 nM

Record `C=CC(=O)N1CC[C@@H](Oc2cc(-c3ccc(O)cc3)cn3cncc23)[C@@H](C)C1` , field IC50: 31.6 to 200 nM

Record `C=CC(=O)N1CCC[C@H](Oc2cc(-c3ccc(O)cc3)cn3cncc23)C1` , field IC50: 200 to 1000 nM

Record `C=CC(=O)N1CC[C@H](COc2cc(-c3ccc(O)cc3)cn3cncc23)C1` , field IC50: 200 to 1000 nM

* * *

System: IL-2 stimulated pSTAT5 in Tall-1 T cells (JAK3)
assay_details: Cellular JAK3 potency assay: inhibition of IL-2 stimulated pSTAT5 in Tall-1 T cells
Type: cell-based
applied_conditions: IL-2 300 ng/ml, pSTAT5 AlphaLisa, Tall-1 human T cell line; read-out: Tall-1 (pIC50) (converted)
Would you mind telling me the reported IC50 of each entry?

The compound `CN(C)C/C=C/C(=O)N1CC(COc2cc(-c3ccc(O)c(Cl)c3)cn3cncc23)C1` , tested on IL-2 stimulated pSTAT5 in Tall-1 T cells (JAK3), showed IC50 of 200 to 1000 nM

The compound `C=CC(=O)N1CC[C@@H](Oc2cc(-c3ccc(O)cc3)cn3cncc23)C[C@@H]1C` , tested on IL-2 stimulated pSTAT5 in Tall-1 T cells (JAK3), showed IC50 of 31.6 to 200 nM

The compound `C=CC(=O)N1[C@H](C)C[C@H](Oc2cc(-c3ccc(O)cc3)cn3cncc23)C[C@@H]1C` , tested on IL-2 stimulated pSTAT5 in Tall-1 T cells (JAK3), showed IC50 of 200 to 1000 nM

The compound `C=CC(=O)N1CC(COc2cc(-c3ccc(O)cc3C)cn3cncc23)C1` , tested on IL-2 stimulated pSTAT5 in Tall-1 T cells (JAK3), showed IC50 of 31.6 to 200 nM
